Test system: MS2 coat protein
Assay: apparent Kd, MS2 coat protein; higher = weaker binding; RNA-MaP array
Conditions: ligand present: flavin mononucleotide; designed as: ON switch for flavin mononucleotide
Binary classification by apparent Kd, with 20 nM as an inclusive lower bound for rule met; all other cases are rule not met.

>  <macromoleculeSequence>
CCAGGACAUGAGGAUCACCCAUGUCAACAUCAAAUAAGCGCGUAGGAUAUCAAUACUGAAAGCUUUGAGAAGGACGAGAGGGUA

>  <labelClass>
rule not met

$$$$
>  <macromoleculeSequence>
AAAAUACAUGAGGAUCACCCAUGUCGCAAAUGCAUAGGAUAUGAUGAUGCUAAACACGCAUCAGAAGGAUGUAGAA

>  <labelClass>
rule not met

$$$$
>  <macromoleculeSequence>
GUUUUCAACUUGUAGGAUAUUUCUCACGAGACAUGAGGAUCACCCAUGUAGUGAACCAGGGAUCGAAAGAAGGACAUCAUGACGGU

>  <labelClass>
rule met

$$$$
>  <macromoleculeSequence>
AGCUAUUCGGGUAAGGAUAUCGAUGUUGUUACAUGAGGAUCACCCAUGUUGCUCGACAUCAGUGACGAGAAGGUACAGCGUGGUAU

>  <labelClass>
rule not met

$$$$
>  <macromoleculeSequence>
AUAUUUUUGUAAUGACAUGAGGAUCACCCAUGUAUCAAUGUAAGAAGGAGGAAAUAAACACGAUCCUAGGAUAUUAGGUGAUUA

>  <labelClass>
rule met

$$$$
>  <macromoleculeSequence>
UCCCAUAUAGUAGGAUAUCUGCUACAUGAGGAUCACCCAUGUCAUAUUUUUUACCAGUCUUAGAUAGAGAAGGACUGUGGACCU

>  <labelClass>
rule met

$$$$
>  <macromoleculeSequence>
CGGCCACAUGAGGAUCACCCAUGUAGUUCGUCUAAAGGAUAUCCAGGUGGGUGACUCCAAGGAGAAGGUUAGGACG

>  <labelClass>
rule met

$$$$
>  <macromoleculeSequence>
CUCACCUCGUGGAAGGAUAUACACUUUAGCACAUGAGGAUCACCCAUGUCCGCCGCAAAUCCUAGGUAGAAGGUCCGCAACAUUCG

>  <labelClass>
rule not met

$$$$
>  <macromoleculeSequence>
CGGAAACAUGAGGAUCACCCAUGUGUAGAAAAGACAGGAUAUGACAAGGGCUUGAAGUGCUCAGAAGGGUCUGGAC

>  <labelClass>
rule not met

$$$$
>  <macromoleculeSequence>
GUCAGGCAACAGAAGGGAGGAUAUAACCGACAUGAGGAUCACCCAUGUGUAAAAGAAACAGUCGCUCAGGAUAUGUUCAACGUG

>  <labelClass>
rule not met

$$$$
>  <macromoleculeSequence>
UACAAAUAUCAUUACAUGAGGAUCACCCAUGUGGGACGUCGUAGAAGGGAGAUUCAAAUACAAGCUCAGGAUAUACAACUUCUG

>  <labelClass>
rule met

$$$$
>  <macromoleculeSequence>
CCUCUCUUCCAGAAGGCUAUCCUAGCAUACGAUAGAGGAUAUGGACCACAAUACGGGUAGAGACACAUGAGGAUCACCCAUGUU

>  <labelClass>
rule met

$$$$
>  <macromoleculeSequence>
GGUCUACAUGAGGAUCACCCAUGUGAGUUCACGGCAGGAUAUGGGUGCCUUUUUAGGCUACCAGAAGGGCCCUCUG

>  <labelClass>
rule not met

$$$$
>  <macromoleculeSequence>
CUGUACCGAAUAGGAUAUGAAAAGAAGGUAAAUUCAGAAGGAUUCAAUUAAUUUACAUGAGGAUCACCCAUGUCUAAGCAAACA

>  <labelClass>
rule not met

$$$$
>  <macromoleculeSequence>
GAGGCUCAUAUGUAGGAUAUUCAAGGAGCUACAUGAGGAUCACCCAUGUUCGGACGCCAAUUUUUGAAGAAGGACAAGACAGUGUU

>  <labelClass>
rule not met

$$$$
>  <macromoleculeSequence>
GCGUGACAUGAGGAUCACCCAUGUGGCCUCGGGCUAGGAUAUGCUGAUAUACUCACCACCGCAGAAGGAGCUUCAC

>  <labelClass>
rule met

$$$$
>  <macromoleculeSequence>
CGGUGAUAUGAAGGAUAUGCACAUGAGGAUCACCCAUGUAACCACUAGAACAAAACGUAGUAACCGCAGAAGGUCAGCAGUAGU

>  <labelClass>
rule not met

$$$$
>  <macromoleculeSequence>
AGUUUUCCUGAGAAGGUGGAGGUCUUUCAUUGCCAAGGAUAUCAGACAACAAUGUAGCCCAAACAUGAGGAUCACCCAUGUCUC

>  <labelClass>
rule met

$$$$
>  <macromoleculeSequence>
AGCAAUACAUAAGGAUAUGACAUCCAAGAGGAAUCAGAAGGUAUGCAGGCGACAUGAGGAUCACCCAUGUAAUCAUGAGGCAAU

>  <labelClass>
rule not met

$$$$

----------
Tested on: MS2 coat protein
Test: apparent Kd, MS2 coat protein; higher = weaker binding; RNA-MaP array; FMN 200 µM where present
Conditions: designed as: ON switch for flavin mononucleotide; no ligand
# key: entry, value: apparent Kd
quantityName: apparent Kd (nM)

>  <macromoleculeSequence>
AUAUGAUAGAUAGGAUAUACAGAUAAAUAAUAAGUAGAAGGAUCAAAUGGAAAUUAUACAUGAGGAUCACCCAUGUUUUUGAAU

>  <quantityName>
apparent Kd

>  <numericReadout>
29

$$$$
>  <macromoleculeSequence>
AAUCGGGAGCAGAAGGCAUGUCAUAAGACAUGAGGAUCACCCAUGUAGUUAAGGCGAAAGCCGCAUGAGGAUAUGCUCCCGUAA

>  <quantityName>
apparent Kd

>  <numericReadout>
71.2

$$$$
>  <macromoleculeSequence>
AAUUAAUUGUAGAAGGUACUUAAUUAUGAUAUGUAAGGAUAUACGAUAUUAUAACGACAUGUAUGACAUGAGGAUCACCCAUGU

>  <quantityName>
apparent Kd

>  <numericReadout>
11.2

$$$$
>  <macromoleculeSequence>
UCGACCAGCGCCAGUCAAACAUGAGGAUCACCCAUGUACUCCAGAAGGCCGCCCAAGAACGGAGUGGAGGAUAUGGAGGUUCUC

>  <quantityName>
apparent Kd

>  <numericReadout>
43.2

$$$$
>  <macromoleculeSequence>
GUUGUAUUAAGUUCAUACUAUAUGAUAGAAGGUGAAAGAUAGACAUGAGGAUCACCCAUGUAAUUCAAGGAUAUGUAGUUACUC

>  <quantityName>
apparent Kd

>  <numericReadout>
28.4

$$$$
>  <macromoleculeSequence>
UAAAUCUAGUAAGGAUAUACACGAGAUUCAAGUGUAGAAGGUACUUACAUGAGGAUCACCCAUGUAUACAUGGAUAAUAGAUAU

>  <quantityName>
apparent Kd

>  <numericReadout>
234

$$$$
>  <macromoleculeSequence>
AAUUACAUGUAGAAGGUACUUAAUUAAGUGUUGUAAGGAUAUACCAAUUUAUUAGAUUUAAAGAUACAUGAGGAUCACCCAUGU

>  <quantityName>
apparent Kd

>  <numericReadout>
12.1

$$$$
>  <macromoleculeSequence>
GGAGCACAUAUUAACAUGAGGAUCACCCAUGUCAAAAGACAUGAGGAUAUGGAUCCGAAAAGGAUCCAGAAGGCAUGGUGCUCC

>  <quantityName>
apparent Kd

>  <numericReadout>
268

$$$$
>  <macromoleculeSequence>
GGUCUGAUAUGAGGAUAUGCUCAGGAAUACUGAGCAGAAGGCAUGUGAAUACAUGAGGAUCACCCAUGUGAUCAAUACAGACCA

>  <quantityName>
apparent Kd

>  <numericReadout>
140

$$$$
>  <macromoleculeSequence>
GCGGAACAUGAGGAUCACCCAUGUGGAGGGUGUAAAGGAUAUUAUAGAGAGAAGGUAGGGUAAGAAGGUUGCUGGG

>  <quantityName>
apparent Kd

>  <numericReadout>
843

$$$$

----------
Overview of recorded apparent Kd for various sequences
Tested on: MS2 coat protein
Experiment: apparent Kd, MS2 coat protein; higher = weaker binding; RNA-MaP array; FMN 200 µM where present
Conditions: ligand present: flavin mononucleotide; designed as: OFF switch for flavin mononucleotide
quantityName: apparent Kd (nM)

>  <macromoleculeSequence>
AAGAAGUCAGGAUAUCCUGCUCGUCACUUGCGUGAUGAGUAGGAGAAGGGACAUGAGGAUCACCCAUGUAAAGA

>  <numericReadout>
51.5

$$$$
>  <macromoleculeSequence>
UGACACAUGAGGGUCUCCCUUGACAUGAGGAUCACCCAUGUGCAGGAUAUACGUGUGAUGGUAUAGUAGAAGGGCACUCUAUGU

>  <numericReadout>
40.5

$$$$
>  <macromoleculeSequence>
GCCGUAAGUGUGAGGAUAUACCUAUGGAAACAUAGGUAGAAGGCACAUGAGGAUCACCCAUGUUCUUAAUCGGC

>  <numericReadout>
329

$$$$

----------
System: MS2 coat protein
Assay: apparent Kd, MS2 coat protein; higher = weaker binding; RNA-MaP array; FMN 200 µM where present
Conditions: ligand present: flavin mononucleotide; designed as: OFF switch for flavin mononucleotide

>  <macromoleculeSequence>
GGAAAGCAAGGAUAUACAAACAAACAAACAAACAAAAGGGAACAUGAGGAUCACCCAUGUAGAAGGUGCAAACA

>  <apparent Kd (nM)>
37.5

$$$$
>  <macromoleculeSequence>
UUUCCGCGAGGAUAUGCGGGCUGUGCUUUUCAUUUCUUACAACAUGAGGAUCACCCAUGUAGAAGGUGCUUCUU

>  <apparent Kd (nM)>
189

$$$$
>  <macromoleculeSequence>
UCCUUGUCCUGAGGAUAUCCGCGGUUCCCAAAAGGAGAAGGCAGGACAUGAGGAUCACCCAUGUACCCAGAAAACGUGCAGAGC

>  <apparent Kd (nM)>
33.8

$$$$
